- Assay Protocol: Toxicokinetics of patidegib and metabolite IPI-230 in plasma after twice daily dermal application for 13 weeks
- Assay type: in vivo, Gottingen Minipig
- Condition Summary: both sexes, Gottingen, minipig, plasma, topical or ocular, 80 mg/kg/day, Gottingen Minipig plasma, Day 1, Group 4, 80 mg/kg/day dermal twice daily, sexes combined MF; read-out: Mean Patidegib AUC0-24
Readout: AUC(0-t) (ng·h/mL)
Field: numeric (ng·h/mL). Do not append units.

CC1=C2C[C@H]3[C@@H](CC[C@@H]4C[C@H](NS(C)(=O)=O)CC[C@@]43C)[C@@H]2CC[C@@]2(C1)O[C@@H]1C[C@H](C)CN[C@H]1[C@H]2C [patidegib] yielded AUC(0-t) of 37.1

====

- Assay Protocol: Toxicokinetics of patidegib and metabolite IPI-230 in plasma after twice daily dermal application for 13 weeks
- Assay type: in vivo, Gottingen Minipig
- Condition Summary: both sexes, Gottingen, minipig, plasma, topical or ocular, post the first or second dose on Days 14 and 90; dermal, minipig plasma; read-out: Individual Tmax
Readout: Tmax

Given item CC1=C2C[C@H]3[C@@H](CC[C@@H]4C[C@H](NS(C)(=O)=O)CC[C@@]43C)[C@@H]2CC[C@@]2(C1)O[C@@H]1C[C@H](C)CN[C@H]1[C@H]2C [patidegib] , the value recorded as its Tmax is 2 to 6 h

====

- Assay Protocol: Toxicokinetics of patidegib and metabolite IPI-230 in plasma after twice daily dermal application for 13 weeks
- Assay type: in vivo, Gottingen Minipig
- Condition Summary: female, Gottingen, minipig, plasma, topical or ocular, 40 mg/kg/day, Gottingen Minipig plasma, Day 1, Group 3, 40 mg/kg/day dermal twice daily, sex F
Readout: Cmax (ng/mL)
The reply should be a number in ng/mL, with the unit left off.

Cmax reported for this molecule CC1=C2C[C@H]3[C@@H](CC[C@@H]4C[C@H](NS(C)(=O)=O)CC[C@@]43C)[C@@H]2CC[C@@]2(C1)O[C@@H]1C[C@H](C)CN[C@H]1[C@H]2C : 4.65

====

- Assay Protocol: Toxicokinetics of patidegib and metabolite IPI-230 in plasma after twice daily dermal application for 13 weeks
- Assay type: in vivo, Gottingen Minipig
- Condition Summary: male, Gottingen, minipig, plasma, topical or ocular, 80 mg/kg/day, Gottingen Minipig plasma, Day 14, Group 4, 80 mg/kg/day dermal twice daily, sex M
Readout: Cmax (ng/mL)
Give just the numeric value; ng/mL need not be written.

CC1=C2C[C@H]3[C@@H](CC[C@@H]4C[C@H](NS(C)(=O)=O)CC[C@@]43C)[C@@H]2CC[C@@]2(C1)O[C@@H]1C[C@H](C)CN[C@H]1[C@H]2C has a reported Cmax of 88.7

====

- Assay Protocol: Toxicokinetics of patidegib and metabolite IPI-230 in plasma after twice daily dermal application for 13 weeks
- Assay type: in vivo, Gottingen Minipig
- Condition Summary: female, Gottingen, minipig, plasma, topical or ocular, 80 mg/kg/day, Gottingen Minipig plasma, Day 90, Group 4, 80 mg/kg/day dermal twice daily, sex F
Readout: Cmax (µg/mL)
Please state the figure in µg/mL; there is no need to write the unit.

Measured Cmax, CC1=C2C[C@H]3[C@@H](CC[C@@H]4C[C@H](NS(C)(=O)=O)CC[C@@]43C)[C@@H]2CC[C@@]2(C1)O[C@@H]1C[C@H](C)CN[C@H]1[C@H]2C : 0.141
